tested-system: T1, monoclonal antibody GR2-1N
T1 construct: also called Hybridoma No. 4
procedure-summary: competitive EIA with GR2-1N; competitor HRP-labeled Ala-Pro-Ala-His-Arg-Gly-Arg-Gly-Gly-Cys-NH2
endpoint-name: pIC50
Give bare numbers, as −log10 of the molar value.

What value of measured pIC50 is listed for pig-type ligand peptide (1-60) (also called pig (1-60); Pig Ligand) peptide: APVHRGRGGWTLNSAGYLLGPVLHPPSRAEGGGKGKTALGILDLWKAIDGLPYPQSQLAS ?
8.22
